- System: RPMI-8226 leukemia
- Procedure Details: NCI-60 one-dose screen, 48 h
- Study Conditions: 10 µM unless noted
Compounds without any hit were thinned out: in the full panel of roughly 83,000, 20% have a hit. Activity calls are given as the source filed them. The calls were made as follows: active = growth percent below 10; inactive = the rest.
Please state which outcome applies, choosing from 1 = active, 0 = inactive

Answered examples (4):
Recorded call for C=C1CCC2C3(C)COC(c4ccc(OC)cc4Br)OC3CCC2(C)C1/C=C/C1=CCOC1=O (stereo not given) ?
1

Assay outcome for `O=C(/C=C/c1ccc(Cl)cc1)/C=C/c1cc2ccccc2[nH]c1=O` : what was it?
1

Any idea what this test logged for `CN(C)CC(=O)Nc1ccc(Cn2nnc3c2C(=O)c2nnn(Cc4ccc(NC(=O)CN(C)C)cc4)c2C3=O)cc1` ?
1

GET /call?item= `O=C1/C(=C\c2cn(C(=O)c3ccc(Cl)cc3)c3ccccc23)c2ccccc2N1c1c(Cl)cccc1Cl` returns the recorded outcome of this test.
0

Then this compound:
Dear colleague, could you share the recorded outcome for `O=c1c2cccc3c(Nc4c(F)cccc4F)ccc(c32)c2nc3ccccc3n12` when you have a moment?
0

###

- Tested on: HCT-15 colon
- Procedure Details: NCI-60 one-dose screen, 48 h
- Study Conditions: 10 µM unless noted
- Description: Growth inhibition of the HCT-15 human tumor cell line is measured as a screen for anti-cancer activity. Cells are grown in 96 well plates and exposed to the test compound for 48 hours. Compounds are tested at a single concentration, which is 10^-5 M for most compounds. The reported endpoint is percent growth (GI% or GIPRCNT), where numbers from 0 - 100% represent growth inhibition, and numbers from -100% - 0 represent cell death. For example, a value of 40 represents 60% growth inhibition. […]
This is part of a sample that, as a whole, favours compounds with a hit. Of some 83,000 tested, about 20% had one in any assay. The source made the active and inactive calls. How the source made its calls: active means growth percent below 10; inactive means the rest.
Bench note: report the call from true for active, false for inactive

Observe how each entry below is paired with its result.
Entry `Cc1cc(Nc2nc(N3CCOCC3)nc3ccccc23)n[nH]1` : call = ?
false

Give the logged outcome of this assay for the following compound: `NC(=S)N/N=C/c1ccc(OCc2ccccc2)cc1`
false

Status in this test for COc1cc(C2CC(=O)Nc3c2cnn3Cc2ccco2)cc2c1OCCO2 (centres undefined) ?
false

Given `O=C(/C=C/c1ccc(Cl)cc1)/C=C/c1cc2ccccc2[nH]c1=O` , state the outcome it received in this test.
false

Which outcome did this test record for the compound `NCCN1CCN(c2nccc(-c3ccc4ccccc4c3)n2)CC1` ?
true

Further cases:
Would you mind telling me which call this test gave `NC1=CC(=O)C(=O)c2ccccc21` ?
false

What classification did `C[C@@H]1CC[C@@H]2[C@@H]1[C@H](OC(=O)/C=C/c1ccccc1)[C@]1(C3CCCCC3)C[C@@H](OC(=O)CO)[C@@]2(C)O1` end up with in this test?
false

// return assay outcome for `O=C(CCN1CCOCC1)Nc1ccc(Cn2nnc3c2C(=O)c2nnn(Cc4ccc(NC(=O)CCN5CCOCC5)cc4)c2C3=O)cc1`
false

Look up the recorded call for CCCCCCCCCCCCCCCC(=O)OCC1OC(n2cnc3c(=S)nc(N)[nH]c32)C(OC(=O)CCCCCCCCCCCCCCC)C1OC(=O)CCCCCCCCCCCCCCC (centres undefined) in this test.
false

###

- Tested on: SF-295 CNS
- Procedure Details: NCI-60 one-dose screen, 48 h
- Study Conditions: 10 µM unless noted
- Description: Cells are grown in 96 well plates and exposed to the test compound for 48 hours. Compounds are tested at a single concentration, which is 10^-5 M for most compounds. The reported endpoint is percent growth (GI% or GIPRCNT), where numbers from 0 - 100% represent growth inhibition, and numbers from -100% - 0 represent cell death. For example, a value of 40 represents 60% growth inhibition. A value of 0 means no net growth occurred over the course of the experiment. […]
About 83,000 compounds went through this panel and 20% of them were active in at least one assay; those are over-represented in the sample as a whole. Activity calls are given as the source filed them. How the source made its calls: active means growth percent below 10; inactive means the rest.
Select the correct class. Options are True for active, False for inactive and nothing else.

Field: outcome | Entry: `O=C(Nc1ccc(Oc2ccc(F)cc2)c(Cl)c1)c1cccnc1`
False

---
Tell me the assay call for `Brc1cccc(-c2cc(-c3ccc4c(c3)OCCO4)[nH]n2)c1` please.
True

// param item: `CC/C(=C(\c1ccccc1)c1ccc(OCCNC)cc1)c1ccccc1` ; yields the recorded call
True

Assay result, entry `CC[C@H](Nc1nc(N)nc(C)c1C#N)c1nc2cccc(NCc3ccc(C(=O)NO)cc3)c2c(=O)n1-c1ccccc1` — outcome?
True
